assay_text: anti-His antibody binders, primary screen, artefact control for SMM control protein annotation, biochemical, small-molecule microarray, 635 nm fluorescence (AID 1128);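 note: score merges feature fluorescence with signal-to-noise for each printed compound spot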
measurement_setup: anti-His Alexa647 antibody binding, higher = more signal
readout_label: composite z-score
// return a plain number; no unit text

`O=C1O[C@@H](c2ccccc2)[C@@H](c2ccccc2)N2[C@@H](c3ccc(OCCO)cc3)[C@]3(C(=O)Nc4ccc(C#CCCO)cc43)[C@@H](C(=O)N3CCN(c4ncccn4)CC3)[C@H]12` yielded composite z-score of 0.468

What the record says about CN1C(=O)C2C=CC(C(O)c3ccc(N(C)C)cc3)N(Nc3ccc([N+](=O)[O-])cc3[N+](=O)[O-])C2C1=O (centres undefined) : composite z-score is 1.54

Noted for `O=C(N1CCCCC1)[C@@]1(CCS(=O)(=O)c2ccccc2)N=C(c2ccc(OCCCO)cc2)O[C@H]1c1ccccc1` : its composite z-score reads 1.9

Measured composite z-score, `CC(C)(C)OC(=O)CC[C@@]1(C(=O)NCc2ccccc2)N=C(c2ccc(OCCCO)cc2)O[C@@H]1c1ccccc1` : 2.76

According to the records, this compound `COc1ccc(-c2cc3c(c(-c4ccccc4)n2)[Si](C(C)C)(C(C)C)O[C@H]3c2ccccc2)cn1` displays composite z-score of -0.614

Note to self: composite z-score recorded for `C=C[C@H](OC)[C@@H](OC(=O)Nc1ccc(SC)cc1)c1ccc(OC)c(O)c1` was -0.548

Entry `CC[C@@H]1C=C(C(=O)O)[C@H](c2ccccc2)N1S(=O)(=O)c1ccc([N+](=O)[O-])cc1` , composite z-score reported as 1.34

# composite z-score (compound: O=C1OCC=C[C@H]2OC34C=CCN(Cc5ccccc5)C(=O)[C@H]3N(CCCCCO)C(=O)[C@@H]4[C@@H]12 (some centres undefined) ) is -0.171

Value of measured composite z-score for the entry `C=CC[C@]1(C(=O)N2CCCCC2)N=C(c2ccc(OCCCO)cc2)O[C@H]1c1ccccc1N=[N+]=[N-]` : 2.94

GET /value?item= `COc1ccc([Si](C)(C)[C@@H]2[C@@H](CC(=O)N(CCO)Cc3ccccc3)O[C@]3(C(=O)N(Cc4cccc(N5CCC5=O)c4)c4ccccc43)[C@H]2C)cc1` &field=composite z-score returns 0.863

get_value(item= `COCCOC(=O)N1C(=O)[C@@]2(c3cc(C#CCNC(N)=O)ccc31)[C@H](C(=O)N1CCCCCCC1)[C@H]1C(=O)O[C@H](c3ccccc3)[C@H](c3ccccc3)N1[C@@H]2c1ccccc1OCCO` , readout=composite z-score) returns 0.455

The value of composite z-score measured for the compound C=CCC(OC(C)=O)[C@@H]1[C@@H](N(Cc2cc3ccccc3o2)C(=O)c2ccc(C)cc2)c2cc(OCCCO)ccc2N1C(=O)c1ccc2ccccc2n1 (some centres undefined) turned out to be -0.88

get_value(item= `O=C1c2ccccc2[C@](Cc2ccccc2I)(C(=O)O)[C@H](c2ccc(CO)cc2)N1C1CCCCC1` , readout=composite z-score) returns 1.52

Memo: `COc1cccc([C@@H]2[C@@H](C)CC[C@H]3C(=O)N4[C@H](c5cccc(OC)c5)[C@@H](C)CC[C@H]4C(=O)N23)c1` , reported composite z-score: 0.584

====

target: NADPH oxidase 2 (Homo sapiens)
assay_text: NOX2-dependent H2O2 signal modulators, primary screen, NOX inhibitor project, cell-based, HEK293-NOX2, PMA-stimulated, Amplex Red fluorescence (AID 1159); note: test concentration not given here
measurement_setup: 45 min, higher = more signal, called active from +8 up or from −8 down
readout_label: z-score
Lab note: jot down the number only; don't add units.

The recorded z-score for entry O=C1C2C=CC(C(O)C(c3ccccc3)c3ccccc3)N(Nc3ccc([N+](=O)[O-])cc3)C2C(=O)N1c1ccccc1 (configuration not stated) equals 0.128

For `CO[C@H]1COC(=O)[C@H](Cc2ccccc2)NC(=O)CC=C[C@@H](C)[C@H](OC)COC(=O)CC=C[C@@H]1C` the compound record lists z-score as -3.05

Please fill in: z-score reported for `NC(=O)[C@H]1[C@@H]2C(=O)O[C@@H](c3ccccc3)[C@@H](c3ccccc3)N2[C@@H](c2ccc(O)cc2)[C@]12C(=O)Nc1ccc(C#CCCO)cc12` = 0.482

What the record says about `Cc1ccc(S(=O)(=O)N2[C@@H](c3ccccc3)C(C(=O)O)=CC[C@H]2c2ccccc2)cc1` : z-score is -0.127

Lab note: measured z-score of `CC(C)CN1C(=O)[C@@]2(Cc3ccccc31)c1ccccc1C(=O)N(C1CCCCC1)[C@H]2c1ccc(CO)cc1` was -0.236

Reported z-score of `COCCOC(=O)N1C(=O)[C@@]2(c3cc(C#CCNC(N)=O)ccc31)[C@H](c1ccc(OCCO)cc1)N1[C@H](c3ccccc3)[C@H](c3ccccc3)OC(=O)[C@H]1[C@@H]2C(=O)N1CCCCCCC1` : 2.38

The compound listed as `CCCNC(=O)[C@@]1(Sc2ccc(C)cc2)CC(=O)N(Cc2ccccc2Cl)[C@@H]1c1ccc(CO)cc1` has a reported z-score of -0.773
